Recorded measurements of IC50, one per entry
- TESTED_TARGET: h5-HT4b (Homo sapiens, UniProt Q13639)
- Construct: expressed in transfected cells; host or cells: HEK 293 (clone 9), membrane preparation
- Sequence (Q13639 whole entry): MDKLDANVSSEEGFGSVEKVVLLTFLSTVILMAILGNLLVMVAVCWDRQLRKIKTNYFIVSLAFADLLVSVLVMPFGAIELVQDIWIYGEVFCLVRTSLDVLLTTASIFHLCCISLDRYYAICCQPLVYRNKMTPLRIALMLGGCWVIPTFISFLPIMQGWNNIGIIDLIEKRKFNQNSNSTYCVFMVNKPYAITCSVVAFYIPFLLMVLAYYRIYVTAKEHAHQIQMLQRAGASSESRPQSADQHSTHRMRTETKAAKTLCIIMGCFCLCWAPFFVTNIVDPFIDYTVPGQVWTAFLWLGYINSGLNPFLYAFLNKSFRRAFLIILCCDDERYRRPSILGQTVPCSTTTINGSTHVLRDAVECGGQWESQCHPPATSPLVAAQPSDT
- PROTOCOL_SUMMARY: 5HT4 antagonism: [3H]GR113808 binding to membranes of h5-HT4b-HEK 293 clone 9 cells
- CONDITION_SET: displacement of [3H]GR113808 0.1 nM, h5-HT4b-HEK 293 membranes, 30 min at 25° C.; read-out: pIC50 (5HT4 antagonistic data) (converted)
Use nM as the unit, but write only the number.

Lab note: h5-HT4b (Homo sapiens, UniProt Q13639) assay, enter IC50 for COCCCN1CC[C@@H](CNC(=O)c2cc(N)c(Cl)c3c2OCCO3)[C@H](O)C1 here
16.2

GET IC50 where system = h5-HT4b (Homo sapiens, UniProt Q13639) and item = Nc1cc2c(c(C(=O)NC[C@@H]3CCN(CCCOC4CCCCC4)C[C@H]3O)c1)OCCCO2
25.7

Please tell me the measured IC50 for Cc1cc2c(c(C(=O)NC[C@@H]3CCN(CCCOC(C)C)C[C@H]3O)c1)OCCCO2 ; system: h5-HT4b (Homo sapiens, UniProt Q13639).
0.813

Send back h5-HT4b (Homo sapiens, UniProt Q13639) IC50 of CNCCCCN1CC[C@@H](CNC(=O)c2cc(NC)cc3c2OCCO3)[C@H](O)C1 only.
34.7

Give IC50 only, for CNCCCCN1CC[C@@H](CNC(=O)c2cc(N)c(Cl)c3c2OCCCO3)[C@H](O)C1 , using h5-HT4b (Homo sapiens, UniProt Q13639) data.
34.7

Give reported IC50 for CCNc1cc2c(c(C(=O)NC[C@@H]3CCN(CCCC#N)C[C@H]3O)c1)OCCCO2 (h5-HT4b (Homo sapiens, UniProt Q13639))
100

Tell me IC50 of CO[C@@H]1CN(CCCNS(C)(=O)=O)CC[C@H]1CNC(=O)c1cc(C)cc2c1OCCCO2 when tested on h5-HT4b (Homo sapiens, UniProt Q13639).
3.09

GET IC50 | system: h5-HT4b (Homo sapiens, UniProt Q13639) | item: Nc1cc2c(c(C(=O)NC[C@@H]3CCN(CCCOC4CCCCC4)C[C@H]3O)c1)OCCO2
6.31

----------
- PROTOCOL_SUMMARY: Metabolic stability: % metabolism after 60 minutes incubation with active liver microsomes
- Format: in vitro ADME
- CONDITION_SET: compound 5 μM, microsomes 1 mg/ml, NADPH-generating system, 60 minutes at 37 degrees Celsius
Note to self: values exactly at 10% are Yes. So % metabolised compound (compounds of present invention) at or above 10% is Yes, below is No.

Solved cases (3 shown):
[
  {
    "MOLECULE": "COc1cc2c(c(C(=O)NC[C@@H]3CCN(CCCO)C[C@H]3O)c1)OCCCO2 [compound 185]",
    "CLASS_ASSIGNMENT": "No"
  },
  {
    "MOLECULE": "Cc1cc2c(c(C(=O)NC[C@@H]3CCN(CCOCCO)C[C@H]3O)c1)OCCCO2 [compound 211]",
    "CLASS_ASSIGNMENT": "Yes"
  },
  {
    "MOLECULE": "COCc1cc2c(c(C(=O)NC[C@@H]3CCN(CC4CCCO4)C[C@H]3O)c1)OCCCO2 (stereo partly shown) [compound 125]",
    "CLASS_ASSIGNMENT": "No"
  }
]

Assess whether reported % metabolised compound (compounds of present invention) for COCCCN1CC[C@@H](CNC(=O)c2cc(OC)cc3c2OCCCO3)[C@H](O)C1 [compound 87] sits at 10% or higher.
No

Hello, I need to know if Cc1cc2c(c(C(=O)NC[C@@H]3CCN(CC4CCCO4)C[C@H]3O)c1)OCCCO2 (stereo partly shown) [compound 186] has measured % metabolised compound (compounds of present invention) not below 10%. Thanks!
No

State whether the measured % metabolised compound (compounds of present invention) reaches 10%, counting equality as reaching it, for COCCCN1CC[C@@H](CNC(=O)c2cc(C#N)cc3c2OCCO3)[C@H](O)C1 [compound 247]
Yes

Threshold query (% metabolised compound (compounds of present invention) >= 10%) on Cc1cc2c(c(C(=O)NC[C@@H]3CCN(CCC4OCCO4)C[C@H]3O)c1)OCCCO2 [compound 163]
Yes
